Reference source: ChEMBL document CHEMBL4130524

test: Oral bioavailability in Wistar rat at 20 mg/kg; type: ADME, organism-based; details: in vivo

| Structure String | bioavailability |
| --- | --- |
| CCOc1cc2ncc(-c3cc(N)nc(F)c3)n2cc1S(=O)(=O)C(C)C | 130% |

* * *

experiment: AUC in Wistar rat at 20 mg/kg, po; type: ADME, organism-based; conditions: in vivo
Recorded Endpoint: AUC (µM·h)

| Structure String | Assay Result |
| --- | --- |
| CCOc1cc2ncc(-c3cc(N)nc(F)c3)n2cc1S(=O)(=O)C(C)C | 91.3 |
